target: HDM2 (Homo sapiens, UniProt Q00987); construct: Thioredoxin (N); made in house; host or cells: E. coli strain BL21(DE3)Rosetta; experiment: HDM2 FRET assay (inhibition of binding of FITC labeled p53-pocket peptide to HDM2); settings: Table 18; read-out: FRET IC50
Sequence (Q00987 17-125): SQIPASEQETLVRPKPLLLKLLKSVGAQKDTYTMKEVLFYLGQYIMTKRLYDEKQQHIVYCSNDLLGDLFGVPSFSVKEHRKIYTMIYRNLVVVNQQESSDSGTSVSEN
Consider the cut-off 9 nM. If the recorded IC50 is strictly smaller, the label is 1; if not, the label is 0.

Please review the following examples before continuing.
- molecule: "CC([C@H]1CC[C@H](C)CC1)n1c(N2CCC[C@H]2CF)nc2nc(-c3n[nH]c(=O)o3)nc(-c3cncc(Cl)c3)c21 (single isomer, unassigned) [Example 18.47]"
  measured target: "HDM2 (Homo sapiens, UniProt Q00987)"
  group: 1
- molecule: "CC[C@H]1CC[C@H](Cn2c(N3CCOC[C@H]3c3ccccc3)nc3nc(C(=O)O)nc(N[C@H](C)C4CCC4)c32)CC1"
  measured target: "HDM2 (Homo sapiens, UniProt Q00987)"
  group: 1
- molecule: "CCC1=CCC(Cn2c(-c3cc(C(C)C)ccn3)nc3nc(-c4noc(=O)[nH]4)nc(N[C@H](C)C4CCC4)c32)CC1 (stereo partly drawn) [Example 18.7]"
  measured target: "HDM2 (Homo sapiens, UniProt Q00987)"
  group: 0
- molecule: "CC([C@H]1CC[C@H](C)CC1)n1c(N2CCOC[C@H]2c2ccccc2)nc2nc(-c3n[nH]c(=O)o3)nc(-c3cncc(Cl)c3)c21 (single isomer, unassigned)"
  measured target: "HDM2 (Homo sapiens, UniProt Q00987)"
  group: 1
- molecule: "CC[C@@H]1COCCN1c1nc2nc(-c3noc(=O)[nH]3)nc(-c3cccc(Cl)c3)c2n1C(C)[C@H]1CC[C@H](C)CC1 (single isomer, unassigned) [Example 18.51]"
  measured target: "HDM2 (Homo sapiens, UniProt Q00987)"
  group: 0
- molecule: "CC[C@H]1CC[C@H](Cn2c(-c3cc(C)ccc3OC)nc3nc(C(=O)O)nc(N[C@H](C)C4CCC4)c32)CC1"
  measured target: "HDM2 (Homo sapiens, UniProt Q00987)"
  group: 0
- molecule: "CC([C@H]1CC[C@H](C)CC1)n1c(N2CCOC[C@H]2C)nc2nc(-c3noc(=O)[nH]3)nc(N[C@H](C)C3CCC3)c21 (single isomer, unassigned) [Example 18.12]"
  measured target: "HDM2 (Homo sapiens, UniProt Q00987)"
  group: 1
- molecule: "CC([C@H]1CC[C@H](C)CC1)n1c(N2CCOC3CCCC32)nc2nc(-c3n[nH]c(=O)o3)nc(N[C@H](C)C3CCC3)c21 (stereo partly drawn)"
  measured target: "HDM2 (Homo sapiens, UniProt Q00987)"
  group: 1

IC50 strictly < 9 nM for this molecule? CC(C)c1ccnc(-c2nc3nc(C(=O)O)nc(N[C@H](C)C4CCC4)c3n2CC2CCC(F)(F)CC2)c1
0

Would you mind doing CC([C@H]1CC[C@H](C)CC1)n1c(N2CCC[C@H]2CF)nc2nc(-c3noc(=O)[nH]3)nc(-c3cncc(Cl)c3)c21 (single isomer, unassigned) [Example 18.46] as well?
1

Would you mind doing CC([C@H]1CC[C@H](C)CC1)n1c(N2CCC[C@H]2CF)nc2nc(-c3n[nH]c(=O)o3)nc(-c3cncc(Cl)c3)c21 (single isomer, unassigned) [Example 18.48] as well?
1
